target_system: T1, L-selectin (CD62L, SELL) (Homo sapiens, UniProt P14151 P14151:39-332)
T1 sequence: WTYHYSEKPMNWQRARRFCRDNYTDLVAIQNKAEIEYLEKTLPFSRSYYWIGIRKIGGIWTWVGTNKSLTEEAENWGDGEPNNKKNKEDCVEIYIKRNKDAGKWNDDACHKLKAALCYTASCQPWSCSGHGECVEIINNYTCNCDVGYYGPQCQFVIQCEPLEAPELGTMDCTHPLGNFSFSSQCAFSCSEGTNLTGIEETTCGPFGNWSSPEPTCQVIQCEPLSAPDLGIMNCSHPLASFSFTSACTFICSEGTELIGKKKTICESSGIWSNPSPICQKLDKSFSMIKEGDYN
method_notes: BLI; +/-0.125; R2 0.9898; aptamer immobilised
condition_parameters: tags: recombinant human CD62L, R&D Systems; label: 5' biotin
reported_property: Kd (nM)

{"binder": "CD62LApt.61 (ssDNA) DNA: AGACCCGACGCAGCATAGTCAAGGCGATAGACGAAAAACATTGTTTTCCTGGAAGGCCCAGAATCTGCG", "reported_property": "Kd", "recorded_value": 5.81}
